system: BRK; construct: gene PTK6; settings: concentration: 1 μM, replicates: in singlicate; n = 1;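 also: KINOMEscan kinase panel screen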
// NB: equality with 10% counts as Not met; only %Inh strictly below is Met

Example results:
>  <Compound>
COc1cccc(CNC(=O)NC2CCN(c3ccnc(Nc4ccc(F)cc4)n3)C2)c1 (stereo not shown) [GSK1379723]

>  <Assigned Class>
Not met

$$$$
>  <Compound>
Cc1ccccc1Cn1ccn2c(=O)cc(N3CCOCC3)nc12 [GSK2269905]

>  <Assigned Class>
Not met

$$$$
>  <Compound>
Cc1ccccc1-c1cc(-c2c[nH]nc2-c2ccccn2)ccn1 [GW680061]

>  <Assigned Class>
Not met

$$$$
>  <Compound>
COC(=O)c1cccc(NC(=O)NC2CCN(c3ccnc(Nc4ccc(OC)cc4)n3)C2)c1 (stereo not shown) [GSK1379746]

>  <Assigned Class>
Not met

$$$$
>  <Compound>
CNc1nc(-c2ccc3c(N)n[nH]c3c2)cc(N2C[C@@H](C(=O)NC3CCCCC3)OC[C@H]2C)n1 [GSK2375584]

>  <Assigned Class>
Not met

$$$$

Task: State whether 10% exceeds %Inh recorded for Nc1nccc(-c2c(-c3ccc(F)cc3)ncn2C2CCN(Cc3ccccc3)CC2)n1 [SB-219980] .
Result: Met

Task: State whether 10% exceeds %Inh recorded for `CC(=O)c1c(C)c2cnc(Nc3ccn(C)n3)nc2n(C2CCCC2)c1=O` .
Result: Met

Task: State whether 10% exceeds %Inh recorded for CC(=O)c1cccc(NC(=O)NC2CCN(c3ccnc(Nc4ccc(F)cc4)n3)C2)c1 (stereo not shown) [GSK1379710] .
Result: Met

Task: State whether 10% exceeds %Inh recorded for Nc1cccc(-c2ccc3c(N)n[nH]c3c2)n1 [GSK2192730] .
Result: Met

Task: State whether 10% exceeds %Inh recorded for CS(=O)(=O)CCNCc1nc(-c2ccc3ncnc(Nc4ccc(OCc5ccccc5)c(Cl)c4)c3c2)cs1.Cl [GW582764] .
Result: Met
